// data source = ChEMBL document CHEMBL1201861

Listed next: entries and their corresponding IC50.
Test system: SK-MEL-30;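 also: growth inhibition of SK-MEL-30 cells, determined with a cell viability assay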
Experiment: cells
Format: functional, cell-based, Homo sapiens
Conditions: sk-mel-30
Description: SANGER: Inhibition of human SK-MEL-30 cell growth in a cell viability assay.
Metric: IC50

sequence_input=BLEOMYCIN target_or_test_system=SK-MEL-30 metric=IC50 assay_value="0.377 µM"
sequence_input=CISPLATIN target_or_test_system=SK-MEL-30 metric=IC50 assay_value="480 µM"

====

Test system: MS-1;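 also: growth inhibition of MS-1 cells, read out by cell viability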
Assay: cells
Assay type: functional, cell-based, Homo sapiens
Details: ms-1
Description: SANGER: Inhibition of human MS-1 cell growth in a cell viability assay.
pIC50: −log10 of the molar value.
Metric: pIC50

sequence_input=CISPLATIN assay_value=4.85

====

Tested on: NCI-H209;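 also: growth inhibition of human NCI-H209 cells, measured by a cell viability assay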
Experiment: cells
Type: functional, cell-based, Homo sapiens
Conditions: Homo sapiens, NCI-H209
Description: SANGER: Inhibition of human NCI-H209 cell growth in a cell viability assay.
Listed next: entries and their corresponding IC50.
Metric: IC50

compound="C#Cc1cccc(Nc2ncnc3cc(OCCOC)c(OCCOC)cc23)c1 [ERLOTINIB]" assay_value="> 2000 nM"
compound=Cc1ccc(-c2c(C(=O)CCl)n(CCCO)c3ncnc(N)c23)cc1 assay_value="> 4000 nM"
compound="COc1cc2ncn(-c3cc(OCc4ccccc4C(F)(F)F)c(C(N)=O)s3)c2cc1OC [GW843682X]" assay_value="225 nM"
compound=Oc1ccc2ccccc2c1SSc1c(O)ccc2ccccc12 assay_value="> 32000 nM"
compound="CO[C@H]1C[C@@H]2CC[C@@H](C)[C@@](O)(O2)C(=O)C(=O)N2CCCC[C@H]2C(=O)O[C@H]([C@H](C)C[C@@H]2CC[C@@H](OC(=O)C(C)(CO)CO)[C@H](OC)C2)CC(=O)[C@H](C)/C=C(\\C)[C@@H](O)[C@@H](OC)C(=O)[C@H](C)C[C@H](C)/C=C/C=C/C=C/1C [TEMSIROLIMUS]" assay_value="153 nM"
compound=Cc1cc([N+](=O)[O-])ccc1NS(=O)(=O)c1cc(Cl)ccc1Cl assay_value="> 32000 nM"
compound=COc1cc(N2CCN(C)CC2)ccc1Nc1ncc2c(n1)N(C)c1ccccc1C(=O)N2C assay_value="> 8000 nM"

====

Test system: ONS-76;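 also: growth inhibition of human ONS-76 cells, read out with a cell viability assay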
Experiment: cells
Assay type: functional, cell-based, Homo sapiens
Settings: Homo sapiens, ONS-76
Description: SANGER: Inhibition of human ONS-76 cell growth in a cell viability assay.
Metric: IC50

compound="Nc1cccc2c1CN(C1CCC(=O)NC1=O)C2=O (stereo not drawn) [LENALIDOMIDE]" assay_value="> 5000 nM"
compound=CC(=O)O[C@H]1C(=O)[C@@]2(C)[C@H]([C@H](OC(=O)c3ccccc3)[C@]3(O)C[C@H](OC(=O)[C@H](O)[C@@H](NC(=O)c4ccccc4)c4ccccc4)C(C)=C1C3(C)C)[C@]1(OC(C)=O)CO[C@@H]1C[C@@H]2O assay_value="20.4 nM"
compound=C=C(c1ccc(C(=O)O)cc1)c1cc2c(cc1C)C(C)(C)CCC2(C)C assay_value="> 8000 nM"

====

System: KYSE-70 cell line;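 also: cell viability assay read-out, with IC50 expressing suppression of KYSE-70 cell growth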
Test: cells
Assay type: functional, cell-based, Homo sapiens
Settings: Homo sapiens, KYSE-70
Description: SANGER: Inhibition of human KYSE-70 cell growth in a cell viability assay.
Metric: IC50

smiles_code=N#Cc1c(O)c2c(-c3ccc(-c4ccccc4O)cc3)csc2[nH]c1=O assay_value="> 1020 nM"
smiles_code=CO[C@H]1C[C@@H]2CC[C@@H](C)[C@@](O)(O2)C(=O)C(=O)N2CCCC[C@H]2C(=O)O[C@H]([C@H](C)C[C@@H]2CC[C@@H](OC(=O)C(C)(CO)CO)[C@H](OC)C2)CC(=O)[C@H](C)/C=C(\C)[C@@H](O)[C@@H](OC)C(=O)[C@H](C)C[C@H](C)/C=C/C=C/C=C/1C assay_value="> 200 nM"
smiles_code=Oc1ccc2ccccc2c1SSc1c(O)ccc2ccccc12 assay_value="> 32000 nM"

====

Listed next: entries and their corresponding IC50.
Test system: BE-13
Assay: cells
Type: functional, cell-based, Homo sapiens
Conditions: Homo sapiens, BE-13
Description: SANGER: Inhibition of human BE-13 cell growth in a cell viability assay.
Metric: IC50

molecule=N#Cc1c(O)c2c(-c3ccc(-c4ccccc4O)cc3)csc2[nH]c1=O assay_value="> 1020 nM"
molecule="COc1cccc2c1C(=O)c1c(O)c3c(c(O)c1C2=O)C[C@@](O)(C(=O)CO)C[C@@H]3O[C@H]1C[C@H](N)[C@H](O)[C@H](C)O1 [DOXORUBICIN]" assay_value="51 nM"
molecule="CCN(CC)CCNC(=O)c1c(C)[nH]c(/C=C2\\C(=O)Nc3ccc(F)cc32)c1C [SUNITINIB]" assay_value="3230 nM"
molecule="CC1(C)CNc2cc(NC(=O)c3cccnc3NCc3ccncc3)ccc21 [MOTESANIB]" assay_value="> 2000 nM"
molecule="Cc1cn(-c2cc(NC(=O)c3ccc(C)c(Nc4nccc(-c5cccnc5)n4)c3)cc(C(F)(F)F)c2)cn1 [NILOTINIB]" assay_value="1270 nM"
molecule="COc1cc2ncn(-c3cc(OCc4ccccc4S(C)(=O)=O)c(C#N)s3)c2cc1OC [GSK-319347A]" assay_value="> 5000 nM"
molecule="COc1cc2ncn(-c3cc(OCc4ccccc4C(F)(F)F)c(C(N)=O)s3)c2cc1OC [GW843682X]" assay_value="11 nM"

====

Test system: SNG-M
Test: cells
Format: functional, cell-based, Homo sapiens
Details: Homo sapiens, SNG-M
Description: SANGER: Inhibition of human SNG-M cell growth in a cell viability assay.
Where a name gives a salt, the structure may show the parent alone.
Listed next: entries and their corresponding IC50.
Metric: IC50

compound="C=C(c1ccc(C(=O)O)cc1)c1cc2c(cc1C)C(C)(C)CCC2(C)C [BEXAROTENE]" assay_value="> 8000 nM"
compound="Nc1ccn([C@@H]2O[C@H](CO)[C@@H](O)C2(F)F)c(=O)n1 [GEMCITABINE]" assay_value="< 4 nM"
compound="COC1=CC(c2cc3ccccc3[nH]2)=N/C1=C\\c1[nH]c(C)cc1C [OBATOCLAX MESYLATE]" assay_value="< 62.5 nM"

====

Listed next: entries and their corresponding IC50.
Tested on: SK-MES-1
Experiment: cells
Assay type: functional, cell-based, Homo sapiens
Settings: Homo sapiens, SK-MES-1
Description: SANGER: Inhibition of human SK-MES-1 cell growth in a cell viability assay.
Metric: IC50

molecule="CCN(CC)CCCCNc1ncc2cc(-c3cc(OC)cc(OC)c3)c(NC(=O)NC(C)(C)C)nc2n1 [PD-173074]" assay_value="> 2 µM"
molecule=COc1cc2c(Nc3ccc(NC(=O)c4ccccc4)cc3)ncnc2cc1OCCCN1CCOCC1 assay_value="> 4 µM"

====

Test system: MDA-MB-231
Test: cells
Type: functional, cell-based, Homo sapiens
Details: mda-mb-231
Description: SANGER: Inhibition of human MDA-MB-231 cell growth in a cell viability assay.
pIC50: −log10 of the molar value.
Metric: pIC50

sequence_input=BLEOMYCIN metric=pIC50 assay_value=6.56
sequence_input=CISPLATIN metric=pIC50 assay_value=3.58

====

System: MLMA;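 also: growth inhibition of MLMA cells (human), determined through a cell viability readout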
Assay: cells
Assay type: functional, cell-based, Homo sapiens
Settings: mlma
Description: SANGER: Inhibition of human MLMA cell growth in a cell viability assay.
Metric: IC50 (nM)

sequence_input=BLEOMYCIN assay_value=870

====

Tested on: Becker
Assay: cells
Format: functional, cell-based, Homo sapiens
Conditions: Homo sapiens, Becker
Description: SANGER: Inhibition of human Becker cell growth in a cell viability assay.
pIC50: −log10 of the molar value.
Listed next: entries and their corresponding pIC50.
Metric: pIC50

compound="Nc1cccc2c1CN(C1CCC(=O)NC1=O)C2=O (stereo not drawn) [LENALIDOMIDE]" metric=pIC50 assay_value="< 5.30"
compound=CC1(C)CNc2cc(NC(=O)c3cccnc3NCc3ccncc3)ccc21 metric=pIC50 assay_value="< 5.70"
compound=C=C(c1ccc(C(=O)O)cc1)c1cc2c(cc1C)C(C)(C)CCC2(C)C metric=pIC50 assay_value="< 5.10"
compound=OCCCNc1cc(-c2ccnc(Nc3cccc(Cl)c3)n2)ccn1 metric=pIC50 assay_value=7.32
compound=COc1cc(-c2nn([C@H]3CC[C@H](N4CCN(C(C)=O)CC4)CC3)c3ncnc(N)c23)ccc1NC(=O)c1cc2ccccc2n1C metric=pIC50 assay_value=5.38
compound=Cc1ccc(-c2c(C(=O)CCl)n(CCCO)c3ncnc(N)c23)cc1 metric=pIC50 assay_value="< 5.40"
compound=COc1cccc2c1C(=O)c1c(O)c3c(c(O)c1C2=O)C[C@@](O)(C(=O)CO)C[C@@H]3O[C@H]1C[C@H](N)[C@H](O)[C@H](C)O1 metric=pIC50 assay_value=6.28
compound=O=C(O)c1ccc(-c2c[nH]c3ncc(-c4ccccc4)cc23)cc1C1CCCC1 metric=pIC50 assay_value="< 4.80"

====

System: CESS
Assay: SANGER: Inhibition of human CESS cell growth in a cell viability assay.
Type: functional, cell-based
Settings: Homo sapiens, CESS
pIC50: −log10 of the molar value. Counter-ions that a name gives are not always drawn.
Metric: pIC50

compound=N#Cc1c(O)c2c(-c3ccc(-c4ccccc4O)cc3)csc2[nH]c1=O metric=pIC50 relation_operator== assay_value=7.00
compound="COC1=CC(c2cc3ccccc3[nH]2)=N/C1=C\\c1[nH]c(C)cc1C [OBATOCLAX MESYLATE]" metric=pIC50 relation_operator== assay_value=7.08
compound=Oc1ccc2ccccc2c1SSc1c(O)ccc2ccccc12 metric=pIC50 relation_operator== assay_value=4.91
compound="COc1cccc2c1C(=O)c1c(O)c3c(c(O)c1C2=O)C[C@@](O)(C(=O)CO)C[C@@H]3O[C@H]1C[C@H](N)[C@H](O)[C@H](C)O1 [DOXORUBICIN]" metric=pIC50 relation_operator== assay_value=7.40
compound=Cc1cc([N+](=O)[O-])ccc1NS(=O)(=O)c1cc(Cl)ccc1Cl metric=pIC50 relation_operator=< assay_value=4.49
compound="CCC/C=C/C=C/C(=O)O[C@H]1/C(=C/C(=O)OC)C[C@H]2C[C@H]([C@@H](C)O)OC(=O)C[C@H](O)C[C@@H]3C[C@H](OC(C)=O)C(C)(C)[C@](O)(C[C@@H]4C/C(=C/C(=O)OC)C[C@H](/C=C/C(C)(C)[C@]1(O)O2)O4)O3 [BRYOSTATIN 1]" metric=pIC50 relation_operator=< assay_value=8.10
compound="O=C(O)c1ccc(-c2c[nH]c3ncc(-c4ccccc4)cc23)cc1C1CCCC1 [GSK-650394]" metric=pIC50 relation_operator=< assay_value=4.80
compound="COc1cc2ncn(-c3cc(OCc4ccccc4S(C)(=O)=O)c(C#N)s3)c2cc1OC [GSK-319347A]" metric=pIC50 relation_operator=< assay_value=5.30
